Sourced from patent US10336762B2

Below, each of the molecules is paired with its reported log10(EC50) value.
tested on: TNFα; assay: cells; format: cell-based, human; details: Homo sapiens, Monocyte, LPS-stimulated human monocytes, TNFα by TR-FRET; read-out: EC50 TNF
Readout Kind: log10(EC50) (log10 of the value in nM)

Molecule: N#Cc1cnn2c(-c3cc(NC45CCC(O)(CC4)CC5)c(C(=O)N[C@H]4CCNC4=O)cn3)ccc2c1 [Example 960]
log10(EC50): 2.50
//
Molecule: CC(C)(O)[C@H](F)CNC(=O)c1cnc(-c2ccc3cc(C#N)cnn23)cc1NC[C@@H]1COCCN1 [Example 917]
log10(EC50): 1.86
//
Molecule: Cc1nc(-c2ccc(Nc3cc(-c4ccc5cc(C#N)cnn45)ncc3C(=O)NC[C@@H](F)C(C)(C)O)cc2)no1 [Example 968]
log10(EC50): 1.91
//
Molecule: COC(=O)NC1(c2ccc(Nc3cc(-c4ccc5cc(C#N)cnn45)ncc3C(=O)N[C@H]3CC[C@H](NC(=O)C4CC4)CC3)cc2)CC1 [Example 866]
log10(EC50): 1.57
//
Molecule: [2H]C([2H])([2H])OC(=O)NC[C@H]1C[C@H](Nc2cc(-c3ccc4cc(C#N)cnn34)ncc2C(=O)NC[C@@H](F)C(C)(C)O)C1 [Example 867]
log10(EC50): 0.78
//
Molecule: CC(C)(O)[C@H](F)CNC(=O)c1cnc(-c2ccc3cc(C#N)cnn23)cc1Nc1ccc(C2(N3CCOC3=O)CC2)cc1 [Example 876]
log10(EC50): 1.38
